B1: library; a variant is named by its letters at N, in order (parent)
chain: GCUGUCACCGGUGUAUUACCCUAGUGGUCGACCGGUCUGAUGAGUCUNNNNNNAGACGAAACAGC

Variants of: B1
protocol_description: normalized RNA/DNA level with ligand (relative to sTRSVctl = 100) (log10 (% of sTRSVctl)); ligand: hypoxanthine (xanthine aptamer); higher = less ribozyme self-cleavage, higher mRNA level
run_parameters: ligand concentration (+) RNA-Seq: 5 mM, HEK293T, reporter: mCherry (pCS4076), ligand present: yes
observation_type: normalized RNA/DNA level with ligand (log10)
Please give only the number in your answer, with no unit.

These recorded examples may help you get a feel for the data.
# mutation_key, value
data = [
    ("CUGAUA", 1.88),
    ("GGCUCU", 2.03),
    ("GGGAUC", 1.94),
    ("AAAUGA", 1.92),
    ("CGUACG", 1.92),
]

Data point: UAGGGG ; normalized RNA/DNA level with ligand (log10) = 1.87

Data point: CGAGUU ; normalized RNA/DNA level with ligand (log10) = 2

Data point: AUCUGG ; normalized RNA/DNA level with ligand (log10) = 1.84

Data point: GGAUGA ; normalized RNA/DNA level with ligand (log10) = 1.89

Data point: GAGCUG ; normalized RNA/DNA level with ligand (log10) = 1.86

Data point: CUGCGU ; normalized RNA/DNA level with ligand (log10) = 1.95

Data point: UGUCUA ; normalized RNA/DNA level with ligand (log10) = 1.95

Data point: AUAGUG ; normalized RNA/DNA level with ligand (log10) = 1.82

Data point: GUAUGC ; normalized RNA/DNA level with ligand (log10) = 1.87

Data point: GAGUAU ; normalized RNA/DNA level with ligand (log10) = 1.91

Data point: UAUACA ; normalized RNA/DNA level with ligand (log10) = 1.93

Data point: CGAUGC ; normalized RNA/DNA level with ligand (log10) = 1.9

Data point: ACAGUA ; normalized RNA/DNA level with ligand (log10) = 1.91

Data point: AAACCG ; normalized RNA/DNA level with ligand (log10) = 1.8

Recorded values, source the supplement of paper PMC6757056.
